# assay.name: Cytotoxicity against multidrug resistant human KBV1 cells overexpressing MDR1 by MTT method
# Assay type: functional, cell-based
# particulars: KB-V1
pIC50: −log10 of the molar value.
// 0 (no) strictly below 6 in pIC50; 1 (yes) otherwise

{"molecule": "CC[C@@]1(O)C(=O)OCc2c1cc1n(c2=O)Cc2cc3c(CN(C)C)c(O)ccc3nc2-1 [TOPOTECAN]", "label.class": "1 (yes)"}
{"molecule": "CN(C)CCn1c(=O)c2cc([N+](=O)[O-])ccc2c2cnc3cc4c(cc3c21)OCO4", "label.class": "1 (yes)"}
{"molecule": "CCCCn1c(=O)c2cc(N)ccc2c2cnc3cc4c(cc3c21)OCO4", "label.class": "0 (no)"}
{"molecule": "CN(C)CCNc1ccc2c(c1)c(=O)n(CCN(C)C)c1c3cc4c(cc3ncc21)OCO4", "label.class": "1 (yes)"}
{"molecule": "CCCCn1c(=O)c2cc(NC(=O)CN(C)C)ccc2c2cnc3cc4c(cc3c21)OCO4", "label.class": "0 (no)"}

###

# Species: Homo sapiens
# assay.name: Inhibition of human recombinant topoisomerase 1 expressed in Escherichia coli assessed as drug level causing 10% mediated DNA cleavage relative to topotecan
Recorded measurements of Activity, one per entry

{"compound.string": "CN(C)CCn1c(=O)c2cc(N)ccc2c2cnc3cc4c(cc3c21)OCO4", "Activity": 8}
{"compound.string": "CCCCn1c(=O)c2cc(NCCN(C)C)ccc2c2cnc3cc4c(cc3c21)OCO4", "Activity": "> 20"}
{"compound.string": "CN(C)CCNc1ccc2c(c1)c(=O)n(CCN(C)C)c1c3cc4c(cc3ncc21)OCO4", "Activity": "> 20"}
{"compound.string": "CN(C)CCNc1ccc2c(=O)n(CCN(C)C)c3c4cc5c(cc4ncc3c2c1)OCO5", "Activity": "> 20"}
{"compound.string": "CCCCn1c(=O)c2ccc(NC(=O)CN(C)C)cc2c2cnc3cc4c(cc3c21)OCO4", "Activity": "> 20"}
{"compound.string": "CCCCn1c(=O)c2cc([N+](=O)[O-])ccc2c2cnc3cc4c(cc3c21)OCO4", "Activity": "> 10"}
{"compound.string": "CCCCn1c(=O)c2ccc([N+](=O)[O-])cc2c2cnc3cc4c(cc3c21)OCO4", "Activity": "> 10"}
{"compound.string": "CN(C)CCn1c(=O)c2ccc(N)cc2c2cnc3cc4c(cc3c21)OCO4", "Activity": 0.5}
{"compound.string": "CCCCn1c(=O)c2cc(NC(=O)CN(C)C)ccc2c2cnc3cc4c(cc3c21)OCO4", "Activity": "> 20"}
{"compound.string": "CCCCn1c(=O)c2ccc(N)cc2c2cnc3cc4c(cc3c21)OCO4", "Activity": "> 20"}
{"compound.string": "CN(C)CCn1c(=O)c2cc([N+](=O)[O-])ccc2c2cnc3cc4c(cc3c21)OCO4", "Activity": 0.2}
